All values here come from the supplement of paper PMC8612539.

test system: Escherichia coli; test: minimum inhibitory concentration (MIC); settings: isolate (source animal id): 180

| compound | minimum inhibitory concentration |
| --- | --- |
| CCN1CCN(c2cc3c(cc2F)c(=O)c(C(=O)O)cn3C2CC2)CC1 | ≤ 0.12 µg/mL |
| COc1cc(NS(=O)(=O)c2ccc(N)cc2)nc(OC)n1 | > 256 µg/mL |
| CC1(C)S[C@@H]2[C@H](NC(=O)Cc3ccccc3)C(=O)N2[C@H]1C(=O)O | > 8 µg/mL |
| NC[C@@H]1O[C@H](O[C@H]2[C@@H](O)[C@H](O[C@@H]3[C@@H](O)[C@H](N)C[C@H](N)[C@H]3O[C@H]3O[C@H](CN)[C@@H](O)[C@H](O)[C@H]3N)O[C@@H]2CO)[C@H](N)[C@@H](O)[C@@H]1O | ≤ 4 µg/mL |
| CNC(C)C1CCC(N)C(OC2C(N)CC(N)C(OC3OCC(C)(O)C(NC)C3O)C2O)O1 (stereo not drawn) | 4 µg/mL |
| CN[C@@H]1[C@H](O)[C@H](NC)[C@H]2O[C@@]3(O)C(=O)C[C@@H](C)O[C@H]3O[C@@H]2[C@H]1O | 16 µg/mL |
| CCCNC[C@]1(O)[C@H](C)O[C@@H](O[C@H]2[C@H](C)[C@@H](O[C@@H]3O[C@H](C)C[C@H](N(C)C)[C@H]3O)[C@](C)(O)C[C@@H](C)CN[C@H](C)[C@@H](O)[C@](C)(O)[C@@H](CC)OC(=O)[C@@H]2C)C[C@@]1(C)OC | ≤ 8 µg/mL |
| CN1C[C@@H]2C[C@H]1CN2c1cc2c(cc1F)c(=O)c(C(=O)O)cn2C1CC1 | ≤ 0.12 µg/mL |

====

tested on: Histophilus somni; test: minimum inhibitory concentration (MIC); conditions: isolate (source animal id): 215
# reported minimum inhibitory concentration; entries follow

| compound | system | relation-operator | minimum inhibitory concentration (µg/mL) |
| --- | --- | --- | --- |
| CC1(C)S[C@@H]2[C@H](NC(=O)Cc3ccccc3)C(=O)N2[C@H]1C(=O)O | Histophilus somni | ≤ | 0.12 |
| CCCNC[C@]1(O)[C@H](C)O[C@@H](O[C@H]2[C@H](C)[C@@H](O[C@@H]3O[C@H](C)C[C@H](N(C)C)[C@H]3O)[C@](C)(O)C[C@@H](C)CN[C@H](C)[C@@H](O)[C@](C)(O)[C@@H](CC)OC(=O)[C@@H]2C)C[C@@]1(C)OC | Histophilus somni | ≤ | 8 |
| C=C[C@]1(C)C[C@@H](OC(=O)CSCCN(CC)CC)[C@]2(C)[C@H](C)CC[C@]3(CCC(=O)[C@H]32)[C@@H](C)[C@@H]1O | Histophilus somni | = | 2 |
| COc1cc(Cc2cnc(N)nc2N)cc(OC)c1OC.Cc1cc(NS(=O)(=O)c2ccc(N)cc2)no1 | Histophilus somni | ≤ | 2 |
| CNC(C)C1CCC(N)C(OC2C(N)CC(N)C(OC3OCC(C)(O)C(NC)C3O)C2O)O1 (configuration not stated) | Histophilus somni | = | 8 |
| CN(C)[C@@H]1C(O)=C(C(N)=O)C(=O)[C@@]2(O)C(O)=C3C(=O)c4c(O)cccc4[C@@](C)(O)[C@H]3C[C@@H]12 | Histophilus somni | = | 4 |
| CC[C@H]1OC(=O)C[C@@H](O)[C@H](C)[C@@H](O[C@@H]2O[C@H](C)[C@@H](O[C@H]3C[C@@](C)(O)[C@@H](O)[C@H](C)O3)[C@H](N(C)C)[C@H]2O)[C@@H](CC=O)C[C@@H](C)C(=O)/C=C/C(C)=C/[C@@H]1CO[C@@H]1O[C@H](C)[C@@H](O)[C@@H](OC)[C@H]1OC | Histophilus somni | = | 8 |

====

# reported minimum inhibitory concentration; entries follow
test system: Histophilus somni; test: minimum inhibitory concentration (MIC); settings: isolate (source animal id): 144

| compound | minimum inhibitory concentration |
| --- | --- |
| CCN1CCN(c2cc3c(cc2F)c(=O)c(C(=O)O)cn3C2CC2)CC1 [Enrofloxacin] | ≤ 0.12 µg/mL |
| CC1(C)S[C@@H]2[C@H](NC(=O)[C@H](N)c3ccccc3)C(=O)N2[C@H]1C(=O)O [Ampicillin] | ≤ 0.25 µg/mL |
| CN1C[C@@H]2C[C@H]1CN2c1cc2c(cc1F)c(=O)c(C(=O)O)cn2C1CC1 [Danofloxacin] | ≤ 0.12 µg/mL |
| CC[C@H]1OC(=O)C[C@@H](O)[C@H](C)[C@@H](O[C@@H]2O[C@H](C)[C@@H](O)[C@H](N(C)C)[C@H]2O)[C@@H](CCN2C[C@H](C)C[C@H](C)C2)C[C@@H](C)C(=O)/C=C/C(C)=C/[C@@H]1CO[C@@H]1O[C@H](C)[C@@H](O)[C@@H](OC)[C@H]1OC [Tilmicosin] | 8 µg/mL |
| CNC(C)C1CCC(N)C(OC2C(N)CC(N)C(OC3OCC(C)(O)C(NC)C3O)C2O)O1 (stereo unspecified) [Gentamicin] | 8 µg/mL |
| COc1cc(Cc2cnc(N)nc2N)cc(OC)c1OC.Cc1cc(NS(=O)(=O)c2ccc(N)cc2)no1 [trimethoprim-sulfamethoxazole] | ≤ 2 µg/mL |

====

# reported minimum inhibitory concentration; entries follow
test system: Pasteurella multocida; test: minimum inhibitory concentration (MIC); settings: isolate (source animal id): 311

| structure-smiles-string | minimum inhibitory concentration |
| --- | --- |
| CCCNC[C@]1(O)[C@H](C)O[C@@H](O[C@H]2[C@H](C)[C@@H](O[C@@H]3O[C@H](C)C[C@H](N(C)C)[C@H]3O)[C@](C)(O)C[C@@H](C)CN[C@H](C)[C@@H](O)[C@](C)(O)[C@@H](CC)OC(=O)[C@@H]2C)C[C@@]1(C)OC | 16 µg/mL |
| CCN1CCN(c2cc3c(cc2F)c(=O)c(C(=O)O)cn3C2CC2)CC1 | ≤ 0.12 µg/mL |
| CC1(C)S[C@@H]2[C@H](NC(=O)[C@H](N)c3ccccc3)C(=O)N2[C@H]1C(=O)O | ≤ 0.25 µg/mL |
| CC[C@H]1OC(=O)C[C@@H](O)[C@H](C)[C@@H](O[C@@H]2O[C@H](C)[C@@H](O[C@H]3C[C@@](C)(O)[C@@H](O)[C@H](C)O3)[C@H](N(C)C)[C@H]2O)[C@@H](CC=O)C[C@@H](C)C(=O)/C=C/C(C)=C/[C@@H]1CO[C@@H]1O[C@H](C)[C@@H](O)[C@@H](OC)[C@H]1OC | > 32 µg/mL |
| CC[C@H]1OC(=O)C[C@@H](O)[C@H](C)[C@@H](O[C@@H]2O[C@H](C)[C@@H](O)[C@H](N(C)C)[C@H]2O)[C@@H](CCN2CCCCC2)C[C@@H](C)C(=O)/C=C/C(C)=C/[C@@H]1CN1CCCCC1 | > 16 µg/mL |
| CC1(C)S[C@@H]2[C@H](NC(=O)Cc3ccccc3)C(=O)N2[C@H]1C(=O)O | 0.25 µg/mL |

====

system: Enterococcus spp.; test: minimum inhibitory concentration (MIC); conditions: isolate (source animal id): 44
# reported minimum inhibitory concentration; entries follow
metric: minimum inhibitory concentration

| compound | recorded-value |
| --- | --- |
| CCC[C@@H]1C[C@@H](C(=O)N[C@@H]([C@H]2O[C@H](SC)[C@H](O)[C@@H](O)[C@H]2O)[C@H](C)Cl)N(C)C1 | 16 µg/mL |
| CC1(C)S[C@@H]2[C@H](NC(=O)[C@H](N)c3ccccc3)C(=O)N2[C@H]1C(=O)O | 1 µg/mL |
| CS(=O)(=O)c1ccc([C@@H](O)[C@@H](CF)NC(=O)C(Cl)Cl)cc1 | 2 µg/mL |
| NC[C@@H]1O[C@H](O[C@H]2[C@@H](O)[C@H](O[C@@H]3[C@@H](O)[C@H](N)C[C@H](N)[C@H]3O[C@H]3O[C@H](CN)[C@@H](O)[C@H](O)[C@H]3N)O[C@@H]2CO)[C@H](N)[C@@H](O)[C@@H]1O | > 32 µg/mL |
| CN1C[C@@H]2C[C@H]1CN2c1cc2c(cc1F)c(=O)c(C(=O)O)cn2C1CC1 | 1 µg/mL |
| CNC(C)C1CCC(N)C(OC2C(N)CC(N)C(OC3OCC(C)(O)C(NC)C3O)C2O)O1 (stereo unspecified) | 16 µg/mL |

====

# reported minimum inhibitory concentration; entries follow
test system: Mannheimia haemolytica; test: minimum inhibitory concentration (MIC); settings: isolate (source animal id): 252

| compound | relation-operator | minimum inhibitory concentration / µg/mL |
| --- | --- | --- |
| CNC(C)C1CCC(N)C(OC2C(N)CC(N)C(OC3OCC(C)(O)C(NC)C3O)C2O)O1 (configuration not stated) | = | 4 |
| CCCN1C[C@H](C)[C@@H](O)[C@](C)(O)[C@@H](CC)OC(=O)[C@H](C)[C@@H](O[C@H]2C[C@@](C)(OC)[C@@H](O)[C@H](C)O2)[C@H](C)[C@@H](O[C@@H]2O[C@H](C)C[C@H](N(C)C)[C@H]2O)[C@](C)(O)C[C@H]1C | = | 8 |
| NC[C@@H]1O[C@H](O[C@H]2[C@@H](O)[C@H](O[C@@H]3[C@@H](O)[C@H](N)C[C@H](N)[C@H]3O[C@H]3O[C@H](CN)[C@@H](O)[C@H](O)[C@H]3N)O[C@@H]2CO)[C@H](N)[C@@H](O)[C@@H]1O | > | 32 |
| CC[C@H]1OC(=O)C[C@@H](O)[C@H](C)[C@@H](O[C@@H]2O[C@H](C)[C@@H](O[C@H]3C[C@@](C)(O)[C@@H](O)[C@H](C)O3)[C@H](N(C)C)[C@H]2O)[C@@H](CC=O)C[C@@H](C)C(=O)/C=C/C(C)=C/[C@@H]1CO[C@@H]1O[C@H](C)[C@@H](O)[C@@H](OC)[C@H]1OC | > | 32 |
| CCN1CCN(c2cc3c(cc2F)c(=O)c(C(=O)O)cn3C2CC2)CC1 | = | 0.5 |
| C=C[C@]1(C)C[C@@H](OC(=O)CSCCN(CC)CC)[C@]2(C)[C@H](C)CC[C@]3(CCC(=O)[C@H]32)[C@@H](C)[C@@H]1O | = | 32 |
| CN1C[C@@H]2C[C@H]1CN2c1cc2c(cc1F)c(=O)c(C(=O)O)cn2C1CC1 | = | 0.25 |
